Biological target: T1, VTGWR
T1 chain: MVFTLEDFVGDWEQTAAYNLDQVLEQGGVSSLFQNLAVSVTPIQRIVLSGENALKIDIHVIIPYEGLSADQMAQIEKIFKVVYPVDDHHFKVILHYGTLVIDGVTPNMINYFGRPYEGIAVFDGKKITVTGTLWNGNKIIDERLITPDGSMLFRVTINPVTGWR
Details: modification not given
outcome.measure: Kd (nM)
Form entry: value (nM) — number only.

So for NVSGWRLFKKISN [NLpep78] , the logged Kd turned out to be 13.3
